system: EKVX NSCLC; assay: NCI-60 one-dose screen, 48 h; conditions: 10 µM unless noted
The panel holds about 83,000 compounds, 20% with a hit somewhere; the sample as a whole holds those more often. Activity calls are given as the source filed them. The calls were made as follows: active = growth percent below 10; inactive = the rest.
Just give me one of these, please: 1.0 (active), 0.0 (inactive)

COMPOUND	TARGET_ENTITY	DISCRETE_LABEL
O=C(Nc1ncc(Cc2ccccc2)s1)c1sc2ccccc2c1Cl	EKVX NSCLC	0.0

Fill in: this test's call for `COc1ccc(-c2nc3c(c(-c4ccc(Cl)cc4)nn3-c3ccccc3)c(-c3ccccc3)c2C#N)cc1` is ___
0.0

Fill in: this test's call for C#CCOc1cccc(Nc2ncnc3c2ncn3C2CCN(C(=O)CCl)C2)c1 (stereo unspecified) is ___
1.0

Fill in: this test's call for `C=C(c1ccc(C(=O)O)c(F)c1)c1cc2c(cc1C)C(C)(C)CCC2(C)C` is ___
0.0

Fill in: this test's call for CCCC(=O)NC(c1ccc2c(c1)OCO2)c1cc(Cl)c2cccnc2c1O (stereo unspecified) is ___
0.0

Fill in: this test's call for COc1ccc2c(c1)C(C)Cc1c(ncnc1-n1cnc3cc(C)ccc31)N2C (stereo unspecified) is ___
0.0
